# Type: in vivo, BALB/c mice
# CONDITION PARAMETERS: BALB/c, mouse, spleen, iv, 20 mg/kg
REPORTED PROPERTY: AUC(0-inf) (µg·h/mL)
Give bare numbers, in µg·h/mL.

Q: Field request: AUC(0-inf) | item: CNCc1ccc(-c2cc(-c3nc(-c4ccc(S(=O)(=O)C(C)C)cc4)cnc3N)on2)cc1
Ans: 306

* * *

# Assay type: in vivo, BALB/c mice
# CONDITION PARAMETERS: BALB/c, mouse, heart, iv, 20 mg/kg, AUC0-t; 20 mg/kg IV; 0–1440 min
REPORTED PROPERTY: AUC(0-t) (ng·h/mL)
Numbers only, in ng·h/mL.

Q: Field request: AUC(0-t) | item: CNCc1ccc(-c2cc(-c3nc(-c4ccc(S(=O)(=O)C(C)C)cc4)cnc3N)on2)cc1
Ans: 81200
